Target: Type-2 angiotensin II receptor (Rattus norvegicus, UniProt P35351)
Sequence (P35351 whole entry): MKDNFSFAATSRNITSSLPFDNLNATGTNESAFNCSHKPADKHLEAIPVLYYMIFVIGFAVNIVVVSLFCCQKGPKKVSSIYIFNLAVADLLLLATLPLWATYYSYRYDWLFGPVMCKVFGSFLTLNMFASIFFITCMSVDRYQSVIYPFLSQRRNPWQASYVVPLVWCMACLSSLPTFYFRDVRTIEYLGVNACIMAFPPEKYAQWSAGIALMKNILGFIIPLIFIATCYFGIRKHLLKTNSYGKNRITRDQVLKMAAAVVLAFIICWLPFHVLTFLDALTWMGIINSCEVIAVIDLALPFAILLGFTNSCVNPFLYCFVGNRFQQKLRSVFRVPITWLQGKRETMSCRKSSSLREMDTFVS
pIC50: −log10 of the molar value.
REPORTED_ENDPOINT: pIC50

Field: example entries. Status: answers known.
{"COMPOUND": "CCc1nc2c(C)cc(C)nc2n1Cc1ccc(OC(C(=O)O)c2ccccc2C)c(Cl)c1 (stereo not given)", "STUDY_SYSTEM": "Type-2 angiotensin II receptor (Rattus norvegicus, UniProt P35351)", "REPORTED_ENDPOINT": "pIC50", "OBSERVED_MEASUREMENT": 5.77}
{"COMPOUND": "CCCCc1nc2ccc(C)cc2c(=O)n1Cc1ccc(OC(C(=O)O)c2ccccc2)cc1 (stereo not given)", "STUDY_SYSTEM": "Type-2 angiotensin II receptor (Rattus norvegicus, UniProt P35351)", "REPORTED_ENDPOINT": "pIC50", "OBSERVED_MEASUREMENT": 6.12}

a: CCc1nc2c(C)cc(C)nc2n1Cc1ccc(OC(C(=O)O)c2ccccc2)cc1 (stereo not given)
b: CCc1nc2c(C)cc(C)nc2n1Cc1ccc(OC(C(=O)O)c2ccccc2C)cc1 (stereo not given)
c: CCc1nc2c(C)cc(C)nc2n1Cc1ccc(OC(C(=O)O)c2ccccc2)c(Cc2ccccc2)c1 (stereo not given)
(Q) Arrange by pIC50, high to low. To answer, write out the labels according to the requested order.
(A) c, a, b
(c: 6.10, a: 5.70, b: 5.28)
